- TESTED_TARGET: HLA-B*40:01
- TEST_DETAILS: IEDB peptide-MHC binding, purified MHC/competitive/fluorescence; filed as Kd, often an IC50 or EC50 that approximates it; bounds were set here for any values at or beyond the usual limits of such assays
- EXPERIMENTAL_SETUP: source organism: Escherichia coli 536
pKd: −log10 of the molar value.
QUANTITY_NAME: pKd

Entry MEIKILHKQ has what pKd?
≤ 4.70

====

- TESTED_TARGET: HLA-B*08:01
- TEST_DETAILS: IEDB peptide-MHC binding, purified MHC/direct/fluorescence; filed as Kd, often an IC50 or EC50 that approximates it; bounds were set here for any values at or beyond the usual limits of such assays
- EXPERIMENTAL_SETUP: source organism: Influenza A virus (A/Puerto Rico/8/34/Mount Sinai(H1N1))
QUANTITY_NAME: pKd
Quick note: pKd values are minus log10 of concentrations in mol/L.

Entry GMDPRMCSL has what pKd?
5.21

====

- TESTED_TARGET: HLA-B*07:02
- TEST_DETAILS: IEDB peptide-MHC binding, purified MHC/direct/fluorescence; filed as Kd, often an IC50 or EC50 that approximates it; bounds were set here for any values at or beyond the usual limits of such assays
- EXPERIMENTAL_SETUP: source organism: Influenza A virus (A/Puerto Rico/8/34/Mount Sinai(H1N1))
QUANTITY_NAME: Kd (nM)
Respond with the bare value in nM.

Entry GMDPRMCSL has what Kd?
1660

====

- TESTED_TARGET: HLA-A*02:19
- TEST_DETAILS: IEDB peptide-MHC binding, purified MHC/direct/fluorescence; filed as Kd, often an IC50 or EC50 that approximates it; bounds were set here for any values at or beyond the usual limits of such assays
- EXPERIMENTAL_SETUP: source organism: Brucella suis 1330
QUANTITY_NAME: Kd

Entry KLYERNTAF has what Kd?
≥ 5 µM

====

- TESTED_TARGET: HLA-B*08:02
- TEST_DETAILS: IEDB peptide-MHC binding, purified MHC/competitive/fluorescence; filed as Kd, often an IC50 or EC50 that approximates it; bounds were set here for any values at or beyond the usual limits of such assays
- EXPERIMENTAL_SETUP: source organism: Mycobacterium leprae
pKd: −log10 of the molar value.
QUANTITY_NAME: pKd

Form field - read-out: pKd; system: HLA-B*08:02; submitted item: TVGYMYIMK
≤ 4.70

====

- TESTED_TARGET: HLA-B*15:01
- TEST_DETAILS: IEDB peptide-MHC binding, purified MHC/direct/fluorescence; filed as Kd, often an IC50 or EC50 that approximates it; bounds were set here for any values at or beyond the usual limits of such assays
- EXPERIMENTAL_SETUP: source organism: Pseudomonas aeruginosa UCBPP-PA14
QUANTITY_NAME: Kd

Entry RTGTRLLGR has what Kd?
≥ 20 µM

====

- TESTED_TARGET: HLA-A*24:03
- TEST_DETAILS: IEDB peptide-MHC binding, purified MHC/direct/fluorescence; filed as Kd, often an IC50 or EC50 that approximates it; bounds were set here for any values at or beyond the usual limits of such assays
- EXPERIMENTAL_SETUP: source organism: Vibrio parahaemolyticus
QUANTITY_NAME: pKd
Quick note: pKd values are minus log10 of concentrations in mol/L.

Entry KYLPNGDYI has what pKd?
7.89
